The entries below are paired with their reported solubility at 24 h.
- assayMethodText: Aqueous solubility of the compound in PBS at pH 7 at 2 mg incubated for 24 hrs by HPLC-UV analysis
- Type: physicochemical
Numbers only; they are read as µg/mL.

Assign solubility at 24 h to the following record: "COc1ccc(S(=O)(=O)N(CC(N)=O)c2ccc(N(CC(N)=O)S(=O)(=O)c3ccc(NC(=O)[C@H]4CCN4)cc3)c3ccccc23)cc1.Cl"
484

Assign solubility at 24 h to the following record: "COc1ccc(S(=O)(=O)N(CC(N)=O)c2ccc(N(CC(N)=O)S(=O)(=O)c3ccc(NC(=O)[C@H]4CCN4)cc3)c3ccccc23)cc1.O=C(O)CCC(=O)O"
60.6

Assign solubility at 24 h to the following record: "COc1ccc(S(=O)(=O)N(CC(N)=O)c2ccc(N(CC(N)=O)S(=O)(=O)c3ccc(NC(=O)[C@H]4CCN4)cc3)c3ccccc23)cc1"
404

Assign solubility at 24 h to the following record: "COc1ccc(S(=O)(=O)N(CC(N)=O)c2ccc(N(CC(N)=O)S(=O)(=O)c3ccc(NC(=O)[C@H]4CCN4)cc3)c3ccccc23)cc1.O=C(O)C(F)(F)F"
292

* * *

- assayMethodText: MRT (0 to infinity) in Sprague-Dawley rat at 20 mg/kg, ip
- Type: ADME, organism-based
- settings: in vivo
propertyLabel: MRT inf (h)
Numbers only; they are read as h.

Assign MRT inf to the following record: "COc1ccc(S(=O)(=O)N(CC(N)=O)c2ccc(N(CC(N)=O)S(=O)(=O)c3ccc(NC(=O)[C@H]4CCN4)cc3)c3ccccc23)cc1"
1.97

* * *

- assayMethodText: Clearance in Sprague-Dawley rat at 20 mg/kg, ip
- Type: ADME, organism-based
- settings: in vivo
propertyLabel: CL/F
Output should be the measured figure followed by the unit it is expressed in.

Assign CL/F to the following record: "COc1ccc(S(=O)(=O)N(CC(N)=O)c2ccc(N(CC(N)=O)S(=O)(=O)c3ccc(NC(=O)[C@H]4CCN4)cc3)c3ccccc23)cc1"
31.8 mL/min/kg

* * *

- experimentalTarget: Keap1/Nrf2 (Homo sapiens) (UniProt Q16236+Q14145)
- Sequence (Q14145 whole entry, looked up): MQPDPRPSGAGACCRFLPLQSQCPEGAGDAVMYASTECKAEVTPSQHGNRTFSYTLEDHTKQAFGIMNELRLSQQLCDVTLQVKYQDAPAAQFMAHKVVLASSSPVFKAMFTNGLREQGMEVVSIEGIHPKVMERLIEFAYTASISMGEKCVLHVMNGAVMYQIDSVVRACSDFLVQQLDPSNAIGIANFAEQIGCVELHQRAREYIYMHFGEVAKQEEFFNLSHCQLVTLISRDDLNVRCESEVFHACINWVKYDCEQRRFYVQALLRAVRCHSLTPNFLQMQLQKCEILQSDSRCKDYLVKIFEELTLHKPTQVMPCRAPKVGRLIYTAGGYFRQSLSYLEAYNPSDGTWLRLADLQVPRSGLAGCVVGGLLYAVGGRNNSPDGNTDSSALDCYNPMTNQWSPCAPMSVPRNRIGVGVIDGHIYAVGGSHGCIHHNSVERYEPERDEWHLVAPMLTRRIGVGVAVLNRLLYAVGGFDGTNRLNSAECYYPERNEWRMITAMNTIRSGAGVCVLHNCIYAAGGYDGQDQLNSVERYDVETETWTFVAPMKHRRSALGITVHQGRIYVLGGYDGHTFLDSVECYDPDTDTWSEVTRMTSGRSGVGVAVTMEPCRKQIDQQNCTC
- Sequence (Q16236 whole entry, looked up): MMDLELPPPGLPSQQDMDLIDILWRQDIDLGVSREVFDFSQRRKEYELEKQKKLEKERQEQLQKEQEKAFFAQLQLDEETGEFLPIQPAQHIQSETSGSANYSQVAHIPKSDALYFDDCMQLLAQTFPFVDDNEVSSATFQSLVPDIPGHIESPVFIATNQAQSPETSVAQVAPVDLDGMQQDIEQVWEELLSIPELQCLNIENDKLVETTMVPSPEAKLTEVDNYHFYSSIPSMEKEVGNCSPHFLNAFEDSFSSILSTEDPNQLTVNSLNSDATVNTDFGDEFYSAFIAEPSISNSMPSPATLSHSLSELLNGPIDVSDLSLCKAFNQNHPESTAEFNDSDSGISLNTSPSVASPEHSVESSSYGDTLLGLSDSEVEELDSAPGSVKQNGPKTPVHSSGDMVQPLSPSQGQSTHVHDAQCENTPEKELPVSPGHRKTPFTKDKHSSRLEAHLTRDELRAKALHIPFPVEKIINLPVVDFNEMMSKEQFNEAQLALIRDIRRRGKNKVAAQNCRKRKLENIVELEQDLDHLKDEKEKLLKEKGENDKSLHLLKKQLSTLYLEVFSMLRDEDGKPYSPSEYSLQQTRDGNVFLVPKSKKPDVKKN
- assayMethodText: Binding affinity to human Keap1-Nrf2 protein-protein interaction assessed as dissociation constant (Kd2) incubated for 60 mins by fluorescent polarization assay
propertyLabel: K (nM)
Numbers only; they are read as nM.

Use the examples below as a reference point.
| molecule | experimentalTarget | propertyLabel | quantityUnit | testValue |
| --- | --- | --- | --- | --- |
| COc1ccc(S(=O)(=O)N(CC(N)=O)c2ccc(N(CC(N)=O)S(=O)(=O)c3ccc(NC(=O)CCCN)cc3)c3ccccc23)cc1 | Keap1/Nrf2 (Homo sapiens) (UniProt Q16236+Q14145) | K | nM | 630 |
| CC[C@H](N)C(=O)Nc1ccc(S(=O)(=O)N(CC(N)=O)c2ccc(N(CC(N)=O)S(=O)(=O)c3ccc(OC)cc3)c3ccccc23)cc1 | Keap1/Nrf2 (Homo sapiens) (UniProt Q16236+Q14145) | K | nM | 530 |
| COc1ccc(S(=O)(=O)N(CC(N)=O)c2ccc(N(CC(N)=O)S(=O)(=O)c3ccc(NC(=O)[C@@H]4CCCN4)cc3)c3ccccc23)cc1 | Keap1/Nrf2 (Homo sapiens) (UniProt Q16236+Q14145) | K | nM | 270 |
| COc1ccc(S(=O)(=O)N(CC(N)=O)c2ccc(N(CC(N)=O)S(=O)(=O)c3ccc(NC(=O)C4CCNC4)cc3)c3ccccc23)cc1 (stereo not given) | Keap1/Nrf2 (Homo sapiens) (UniProt Q16236+Q14145) | K | nM | 280 |

Assign K to the following record: "COc1ccc(S(=O)(=O)N(CC(N)=O)c2ccc(N(CC(N)=O)S(=O)(=O)c3ccc(NC(=O)[C@@H](N)Cc4ccccc4)cc3)c3ccccc23)cc1"
820
